Each entry below lists one item and its recorded growth inhibition value.
- TEST: NCI Yeast Anticancer Drug Screen. Data for the cln2 rad14 strain (AID 165);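 also: 0% = growth equal to vehicle treated cultures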
- PARTICULARS: S. cerevisiae cln2 rad14 strain, at 50.0 µM, stronger effect = higher value
- Description: Growth inhibition of yeast strains with defined genetic alterations is measured as a screen for potential anti-cancer activity. Selected strains with alterations in DNA damage repair or cell cycle control were exposed to compounds and growth inhibition was measured relative to vehicle treated controls. The strain used in this assay is cln2 rad14
The panel holds about 79,000 compounds, 15% with a hit somewhere; the sample as a whole holds those more often. Calls of active or inactive are those of the source. Rule as the data show it: active = growth inhibition above about 70%; inactive = the rest.

{"SMILES_REPR": "O=C(Oc1cccc2cccnc12)c1cccnc1", "growth inhibition": "92.2% (active)"}
{"SMILES_REPR": "CCOC(=O)C(=C=Cc1cccs1)C(=O)c1ccccc1", "growth inhibition": "90.7% (active)"}
{"SMILES_REPR": "CC(=O)Oc1ccc(Cl)cc1Cc1cc(Cl)ccc1OC(C)=O", "growth inhibition": "89.2% (active)"}

INPUT: Which growth inhibition reading was recorded for the compound `CCCCCCCCCCCCCCCCCCOP(=O)([O-])OCC[N+](C)(C)C` ?
OUTPUT: 89.5% (active)

Source listed as PubChem BioAssay (NCI).
